Data provenance: ChEMBL document CHEMBL4825755

target: UniProtKB Q12809
Sequence (Q12809 whole entry): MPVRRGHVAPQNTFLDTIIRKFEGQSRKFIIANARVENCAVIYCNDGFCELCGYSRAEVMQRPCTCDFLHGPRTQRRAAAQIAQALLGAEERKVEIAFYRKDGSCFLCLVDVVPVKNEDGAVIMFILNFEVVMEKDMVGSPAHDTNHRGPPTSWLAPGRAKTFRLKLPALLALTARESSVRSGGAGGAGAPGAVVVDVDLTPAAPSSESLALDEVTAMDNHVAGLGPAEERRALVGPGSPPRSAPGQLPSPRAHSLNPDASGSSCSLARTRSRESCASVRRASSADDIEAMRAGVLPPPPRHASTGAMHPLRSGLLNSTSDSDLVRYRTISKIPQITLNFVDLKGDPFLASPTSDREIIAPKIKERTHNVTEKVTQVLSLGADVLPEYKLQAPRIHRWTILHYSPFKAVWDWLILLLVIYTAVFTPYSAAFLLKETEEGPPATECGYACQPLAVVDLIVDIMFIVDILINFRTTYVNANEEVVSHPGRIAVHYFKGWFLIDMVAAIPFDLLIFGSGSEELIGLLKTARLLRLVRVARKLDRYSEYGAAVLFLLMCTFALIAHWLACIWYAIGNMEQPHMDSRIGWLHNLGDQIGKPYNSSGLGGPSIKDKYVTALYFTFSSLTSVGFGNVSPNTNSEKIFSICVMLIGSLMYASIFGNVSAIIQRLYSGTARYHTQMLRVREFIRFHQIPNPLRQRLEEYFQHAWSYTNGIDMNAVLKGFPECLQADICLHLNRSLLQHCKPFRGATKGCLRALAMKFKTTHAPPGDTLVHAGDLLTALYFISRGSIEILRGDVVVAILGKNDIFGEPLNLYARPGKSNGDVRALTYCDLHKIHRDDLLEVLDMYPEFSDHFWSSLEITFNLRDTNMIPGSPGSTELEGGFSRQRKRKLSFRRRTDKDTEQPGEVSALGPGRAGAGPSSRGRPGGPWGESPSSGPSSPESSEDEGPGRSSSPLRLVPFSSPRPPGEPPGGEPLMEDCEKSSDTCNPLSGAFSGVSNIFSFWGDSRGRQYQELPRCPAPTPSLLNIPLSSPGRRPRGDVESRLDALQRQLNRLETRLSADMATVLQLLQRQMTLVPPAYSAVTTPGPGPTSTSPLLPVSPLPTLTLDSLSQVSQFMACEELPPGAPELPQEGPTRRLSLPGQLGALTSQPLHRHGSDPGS
outcome-measure: IC50

Summary for this molecule, COc1ncc(C2=CCOCC2)cc1S(=O)(=O)Nc1cncc(C#CCN2CCN(C(C)C)CC2)c1 : IC50 is > 50.1 µM

----------
procedure-summary: Solubility in pH 6.5 FaSSIF incubated for 4 hrs using amorphous form of sample by UV-HPLC method
Format: physicochemical
outcome-measure: solubility at 4 h

Summary for this compound, COc1ncc(C2=CCOCC2)cc1S(=O)(=O)Nc1cncc(C#CCN2CCN(C(C)C)CC2)c1 : solubility at 4 h is > 1000 µg/mL

----------
target: serum albumin (Homo sapiens, UniProt P02768)
procedure-summary: Binding affinity to human serum albumin by HPLC analysis
Type: ADME, cell-free
condition-parameters: read-out: PB (converted)
Catalogue of fraction unbound values
// response body must contain only the number

Study these solved cases before continuing.
COc1ncc(C2=CCOCC2)cc1S(=O)(=O)Nc1cncc(C#CCN2CCN(C(C)C)CC2)c1 0.17
COc1ncc(C2=CCOCC2)cc1S(=O)(=O)Nc1cncc(C)c1 0.09

Summary for this compound, COc1ncc(C2=CCOCC2)cc1S(=O)(=O)Nc1ccnc(C)c1 : fraction unbound is 0.21

----------
Catalogue of CLint scaled at 0.5 µM values
procedure-summary: Intrinsic clearance in Wistar Han rat liver microsomes at 0.5 uM measured up to 45 mins in presence of NADPH by LC-MS/MS analysis
Assay type: ADME, Microsome
condition-parameters: read-out: CLH
Hi! Could you send only the number? It should be in mL/min/kg, unit omitted.

Study these solved cases before continuing.
COc1ncc(C2=CCOCC2)cc1S(=O)(=O)Nc1cncc(-c2cccc(CN3CCCC3)c2)c1 1.1
COc1ncc(C2=CCOCC2)cc1S(=O)(=O)Nc1cncc(-c2ccc(CN3C[C@@H](C)O[C@@H](C)C3)cc2)c1 18.9
COc1ncc(N2CCOCC2)cc1S(=O)(=O)Nc1ccnc(-c2ccc(CN3C[C@@H](C)O[C@@H](C)C3)cc2F)c1 0.59
COc1ncc(C2=CCOCC2)cc1S(=O)(=O)Nc1cncc(-c2ccc(CN3C[C@@H](C)N(C)[C@@H](C)C3)cc2)c1 0.87
COc1ncc(C2=CCOCC2)cc1S(=O)(=O)Nc1cncc(C#CCN2C[C@@H](C)O[C@@H](C)C2)c1 5.59

Please look at the following compound next.
Summary for this compound, COc1ncc(C2=CCOCC2)cc1S(=O)(=O)Nc1cncc(-c2ccc(CN3CCCC3)cc2)c1 : CLint scaled at 0.5 µM is 0.88

----------
target: PI3K p110 beta/p85 alpha (Homo sapiens)
procedure-summary: Inhibition of recombinant human N-terminal His6-tagged full length P110beta/full length untagged human p85alpha expressed in baculovirus infected Sf21 insect cells using PIP2 as substrate preincubated for 15 mins followed by substrate addition and measured after 60 mins by HTRF assay
outcome-measure: pIC50
pIC50 field: float, defined as -log10 of concentration (mol/L).

Study these solved cases before continuing.
COc1ncc(N2CCOCC2)cc1S(=O)(=O)Nc1ccnc(-c2ccc(CN3CCN(C(C)C)CC3)c(F)c2)c1 5.10
COc1ncc(N2CCOCC2)cc1S(=O)(=O)Nc1cncc(-c2ccc(CN3CCN(C(C)C)CC3)cc2F)c1 5.40
COc1ncc(N2CCOCC2)cc1S(=O)(=O)Nc1cncc(-c2ccc(CN3CCCC3)cc2F)c1 5.80

Please look at the following molecule next.
Summary for this molecule, COc1ncc(C2=CCOCC2)cc1S(=O)(=O)Nc1cncc(-c2ccc(CN3CCCCC3)s2)c1 : pIC50 is 7.00

----------
procedure-summary: Lipophilicity, log D of compound by chromatographic method
Format: physicochemical
Each entry gets rule not met if its chromatographic logD stays under 2, and rule met if its chromatographic logD is 2 or above.

// below: answered molecules
molecule	assigned-label
COc1ncc(N2CCOCC2)cc1S(=O)(=O)Nc1ccnc(-c2ccc(CN3CCC(C(C)(C)O)CC3)cc2F)c1	rule met
COc1ncc(C2=CCOCC2)cc1S(=O)(=O)Nc1cncc(-c2ccc(CN3CCCCC3)s2)c1	rule met
COc1ncc(N2CCOCC2)cc1S(=O)(=O)Nc1cncc(-c2ccc(CN3CCN(C(C)C)CC3)cc2)c1	rule met
COc1ncc(C2=CCOCC2)cc1S(=O)(=O)Nc1cncc(C2=CCN(C)CC2)c1	rule not met
COc1ncc(C2=CCOCC2)cc1S(=O)(=O)Nc1cncc(C#CCN2C[C@@H](C)O[C@@H](C)C2)c1	rule met
COc1ncc(C2=CCOCC2)cc1S(=O)(=O)Nc1cncc(-c2ccc(N3CCN(C(C)C)CC3)cc2)c1	rule met

Please indicate if the recorded chromatographic logD for COc1ncc(C2=CCOCC2)cc1S(=O)(=O)Nc1cncc(C2CC2CN(C)C)c1 (stereo not drawn) meets or exceeds 2. rule not met

Please indicate if the recorded chromatographic logD for COc1ncc(N2CCOCC2)cc1S(=O)(=O)Nc1ccnc(-c2ccc(CN3CCN(C(C)C)CC3)c(F)c2F)c1 meets or exceeds 2. rule met

----------
procedure-summary: Lipophilicity, log D of compound by chromatographic method
Assay type: physicochemical
outcome-measure: chromatographic logD
// response body must contain only the number

Study these solved cases before continuing.
COc1ncc(N2CCOCC2)cc1S(=O)(=O)Nc1ccnc(-c2ccc(CN3CCN(C(C)(C)C)CC3)cc2)c1 1.3
COc1ncc(C2=CCOCC2)cc1S(=O)(=O)Nc1cncc(-c2cccc(CN3CCCCC3)c2)c1 3.5
COc1ncc(C2=CCOCC2)cc1S(=O)(=O)Nc1cncc(-c2ccc(CN3CCN(C(C)C)CC3)cc2)c1 2.9
COc1ncc(N2CCOCC2)cc1S(=O)(=O)Nc1ccnc(-c2ccc(CN3CCN(C(C)C)CC3)c(F)c2)c1 1.8
COc1ncc(N2CCOCC2)cc1S(=O)(=O)Nc1cncc(-c2ccc(CN3CCCC3)cc2F)c1 2.4

Summary for this compound, COc1ncc(N2CCOCC2)cc1S(=O)(=O)Nc1ccnc(-c2ccc(CN3C[C@@H](C)O[C@@H](C)C3)cc2F)c1 : chromatographic logD is 3.9

Summary for this compound, COc1ncc(C2=CCOCC2)cc1S(=O)(=O)Nc1cncc(-c2ccc(CN3CCN(C)CC3)cc2)c1 : chromatographic logD is 2.3

Summary for this compound, COc1ncc(N2CCOCC2)cc1S(=O)(=O)Nc1cncc(-c2ccc(CN3CCCC3)c(F)c2)c1 : chromatographic logD is 2.2

Summary for this compound, COc1ncc(C2=CCOCC2)cc1S(=O)(=O)Nc1cncc(-c2ccc(CN3C[C@@H](C)N(C)[C@@H](C)C3)cc2)c1 : chromatographic logD is 3.1

----------
target: PI3-kinase p110-alpha/p85-alpha (Homo sapiens)
Sequence (P42336 whole entry, one chain of several): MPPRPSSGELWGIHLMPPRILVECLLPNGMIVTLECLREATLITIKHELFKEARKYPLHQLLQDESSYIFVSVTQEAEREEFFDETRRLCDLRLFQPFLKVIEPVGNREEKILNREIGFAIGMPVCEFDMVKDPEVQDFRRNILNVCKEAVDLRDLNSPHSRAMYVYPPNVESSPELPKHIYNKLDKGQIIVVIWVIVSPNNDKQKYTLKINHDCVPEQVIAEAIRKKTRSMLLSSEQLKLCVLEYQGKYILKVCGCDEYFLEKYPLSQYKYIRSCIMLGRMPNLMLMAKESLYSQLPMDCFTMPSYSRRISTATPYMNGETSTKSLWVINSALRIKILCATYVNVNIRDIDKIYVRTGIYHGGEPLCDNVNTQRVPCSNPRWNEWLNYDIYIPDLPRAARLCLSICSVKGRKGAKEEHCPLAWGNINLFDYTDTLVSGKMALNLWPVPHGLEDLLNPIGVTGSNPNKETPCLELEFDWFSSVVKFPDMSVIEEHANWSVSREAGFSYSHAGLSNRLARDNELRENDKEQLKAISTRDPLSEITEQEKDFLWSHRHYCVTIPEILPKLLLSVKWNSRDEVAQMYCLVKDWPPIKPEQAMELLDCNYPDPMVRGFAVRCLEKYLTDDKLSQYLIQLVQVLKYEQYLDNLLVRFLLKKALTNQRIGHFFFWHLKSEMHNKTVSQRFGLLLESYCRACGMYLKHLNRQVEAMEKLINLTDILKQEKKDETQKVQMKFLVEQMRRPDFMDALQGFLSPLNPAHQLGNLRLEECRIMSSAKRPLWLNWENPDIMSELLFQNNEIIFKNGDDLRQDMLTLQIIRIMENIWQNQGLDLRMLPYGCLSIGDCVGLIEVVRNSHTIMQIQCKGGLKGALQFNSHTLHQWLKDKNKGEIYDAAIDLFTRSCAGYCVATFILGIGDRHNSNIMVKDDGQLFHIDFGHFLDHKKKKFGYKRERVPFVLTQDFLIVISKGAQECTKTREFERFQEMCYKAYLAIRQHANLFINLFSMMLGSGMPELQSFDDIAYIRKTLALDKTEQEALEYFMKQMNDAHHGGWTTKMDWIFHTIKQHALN
procedure-summary: Inhibition of recombinant human N-terminal His6-tagged full length P110alpha/full length untagged human p85alpha expressed in baculovirus infected Sf21 insect cells using PIP2 as substrate preincubated for 15 mins followed by substrate addition and measured after 60 mins by HTRF assay
outcome-measure: pIC50
pIC50 field: float, defined as -log10 of concentration (mol/L).

Study these solved cases before continuing.
COc1ncc(N2CCOCC2)cc1S(=O)(=O)Nc1ccnc(-c2ccc(CN3CCN(C(C)C)CC3)c(F)c2F)c1 5.90
COc1ncc(C2=CCOCC2)cc1S(=O)(=O)Nc1cncc(-c2ccc(CN3CCNCC3)cc2)c1 5.50
COc1ncc(N2CCOCC2)cc1S(=O)(=O)Nc1ccnc(-c2ccc(CN3C[C@@H](C)O[C@@H](C)C3)cc2F)c1 5.90
COc1ncc(N2CCOCC2)cc1S(=O)(=O)Nc1ccnc(-c2ccc(CN3CCN(C(C)C)CC3)cc2)c1 5.60
COc1ncc(C2=CCOCC2)cc1S(=O)(=O)Nc1cncc(-c2ccc(N3CCN(C(C)C)CC3)cc2)c1 6.50

// pIC50 (PI3-kinase p110-alpha/p85-alpha (Homo sapiens)) for COc1ncc(C2=CCOCC2)cc1S(=O)(=O)Nc1cncc(-c2cccc(CN3CCCC3)c2)c1 = 5.30

// pIC50 (PI3-kinase p110-alpha/p85-alpha (Homo sapiens)) for COc1ncc(C2=CCOCC2)cc1S(=O)(=O)Nc1cncc(C#CCN2C[C@@H](C)O[C@@H](C)C2)c1 = 5.20

// pIC50 (PI3-kinase p110-alpha/p85-alpha (Homo sapiens)) for COc1ncc(N2CCOCC2)cc1S(=O)(=O)Nc1ccnc(-c2ccc(CN3CCN(C(C)(C)C)CC3)cc2)c1 = 5.80

----------
target: Phosphatidylinositol 4,5-bisphosphate 3-kinase catalytic subunit delta isoform (Homo sapiens, UniProt O00329)
Sequence (O00329 whole entry, canonical isoform): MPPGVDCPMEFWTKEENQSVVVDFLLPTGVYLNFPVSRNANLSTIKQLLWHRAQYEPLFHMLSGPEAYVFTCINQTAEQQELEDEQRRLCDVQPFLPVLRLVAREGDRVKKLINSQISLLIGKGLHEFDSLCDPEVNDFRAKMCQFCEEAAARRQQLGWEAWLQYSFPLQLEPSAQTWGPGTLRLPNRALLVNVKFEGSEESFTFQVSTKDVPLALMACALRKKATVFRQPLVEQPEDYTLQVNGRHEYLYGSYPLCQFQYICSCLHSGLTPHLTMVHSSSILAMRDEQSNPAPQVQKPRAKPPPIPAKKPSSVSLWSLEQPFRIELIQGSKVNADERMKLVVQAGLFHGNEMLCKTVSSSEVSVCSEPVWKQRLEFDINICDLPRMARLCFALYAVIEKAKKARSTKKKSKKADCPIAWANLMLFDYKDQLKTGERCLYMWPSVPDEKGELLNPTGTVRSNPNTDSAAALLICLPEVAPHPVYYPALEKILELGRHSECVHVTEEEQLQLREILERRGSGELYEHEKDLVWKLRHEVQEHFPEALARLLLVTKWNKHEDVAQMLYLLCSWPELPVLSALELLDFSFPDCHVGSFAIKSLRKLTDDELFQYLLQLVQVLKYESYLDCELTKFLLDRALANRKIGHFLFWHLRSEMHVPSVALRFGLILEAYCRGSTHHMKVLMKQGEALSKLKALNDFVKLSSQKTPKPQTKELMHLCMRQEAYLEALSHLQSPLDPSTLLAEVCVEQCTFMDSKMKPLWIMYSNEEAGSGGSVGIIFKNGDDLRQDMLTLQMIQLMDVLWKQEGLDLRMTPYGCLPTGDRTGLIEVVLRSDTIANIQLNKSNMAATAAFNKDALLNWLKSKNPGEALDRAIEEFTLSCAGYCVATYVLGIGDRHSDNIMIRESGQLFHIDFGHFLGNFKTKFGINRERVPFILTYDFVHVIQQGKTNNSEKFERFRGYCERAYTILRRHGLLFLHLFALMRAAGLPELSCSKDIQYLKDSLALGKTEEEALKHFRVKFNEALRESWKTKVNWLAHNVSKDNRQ
procedure-summary: Inhibition of PI3Kdelta in human HL-60 cell extract measured after 2 hrs by kinobeads based chemoproteomic competition binding assay
Assay type: tissue-based
outcome-measure: IC50
Provide a numeric answer, followed by its unit.

Summary for this compound, COc1ncc(C2=CCOCC2)cc1S(=O)(=O)Nc1cncc(C#CCN2CCN(C(C)C)CC2)c1 : IC50 is 1.58 nM

----------
Catalogue of IC50 values
target: PI3K p110 beta/p85 alpha (Homo sapiens, UniProt P42338)
Sequence (P27986 whole entry): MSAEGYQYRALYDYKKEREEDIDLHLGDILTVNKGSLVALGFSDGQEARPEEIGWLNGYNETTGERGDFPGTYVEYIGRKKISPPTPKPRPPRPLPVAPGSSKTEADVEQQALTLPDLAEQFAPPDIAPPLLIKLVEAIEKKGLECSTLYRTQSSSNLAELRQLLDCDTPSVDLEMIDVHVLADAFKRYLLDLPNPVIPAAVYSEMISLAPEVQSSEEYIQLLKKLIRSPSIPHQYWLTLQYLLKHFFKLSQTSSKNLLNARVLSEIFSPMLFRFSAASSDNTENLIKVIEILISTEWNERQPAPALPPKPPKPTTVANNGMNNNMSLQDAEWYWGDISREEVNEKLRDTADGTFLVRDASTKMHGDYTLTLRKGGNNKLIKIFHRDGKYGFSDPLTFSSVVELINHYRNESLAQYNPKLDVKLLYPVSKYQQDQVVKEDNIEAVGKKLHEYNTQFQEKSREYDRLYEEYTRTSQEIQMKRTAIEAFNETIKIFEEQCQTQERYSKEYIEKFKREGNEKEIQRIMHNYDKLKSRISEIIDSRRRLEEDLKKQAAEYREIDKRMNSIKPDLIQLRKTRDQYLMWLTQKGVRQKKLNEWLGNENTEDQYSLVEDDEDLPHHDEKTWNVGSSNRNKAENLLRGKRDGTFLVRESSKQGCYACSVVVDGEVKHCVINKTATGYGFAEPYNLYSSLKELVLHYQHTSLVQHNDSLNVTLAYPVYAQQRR
Sequence (P42338 whole entry): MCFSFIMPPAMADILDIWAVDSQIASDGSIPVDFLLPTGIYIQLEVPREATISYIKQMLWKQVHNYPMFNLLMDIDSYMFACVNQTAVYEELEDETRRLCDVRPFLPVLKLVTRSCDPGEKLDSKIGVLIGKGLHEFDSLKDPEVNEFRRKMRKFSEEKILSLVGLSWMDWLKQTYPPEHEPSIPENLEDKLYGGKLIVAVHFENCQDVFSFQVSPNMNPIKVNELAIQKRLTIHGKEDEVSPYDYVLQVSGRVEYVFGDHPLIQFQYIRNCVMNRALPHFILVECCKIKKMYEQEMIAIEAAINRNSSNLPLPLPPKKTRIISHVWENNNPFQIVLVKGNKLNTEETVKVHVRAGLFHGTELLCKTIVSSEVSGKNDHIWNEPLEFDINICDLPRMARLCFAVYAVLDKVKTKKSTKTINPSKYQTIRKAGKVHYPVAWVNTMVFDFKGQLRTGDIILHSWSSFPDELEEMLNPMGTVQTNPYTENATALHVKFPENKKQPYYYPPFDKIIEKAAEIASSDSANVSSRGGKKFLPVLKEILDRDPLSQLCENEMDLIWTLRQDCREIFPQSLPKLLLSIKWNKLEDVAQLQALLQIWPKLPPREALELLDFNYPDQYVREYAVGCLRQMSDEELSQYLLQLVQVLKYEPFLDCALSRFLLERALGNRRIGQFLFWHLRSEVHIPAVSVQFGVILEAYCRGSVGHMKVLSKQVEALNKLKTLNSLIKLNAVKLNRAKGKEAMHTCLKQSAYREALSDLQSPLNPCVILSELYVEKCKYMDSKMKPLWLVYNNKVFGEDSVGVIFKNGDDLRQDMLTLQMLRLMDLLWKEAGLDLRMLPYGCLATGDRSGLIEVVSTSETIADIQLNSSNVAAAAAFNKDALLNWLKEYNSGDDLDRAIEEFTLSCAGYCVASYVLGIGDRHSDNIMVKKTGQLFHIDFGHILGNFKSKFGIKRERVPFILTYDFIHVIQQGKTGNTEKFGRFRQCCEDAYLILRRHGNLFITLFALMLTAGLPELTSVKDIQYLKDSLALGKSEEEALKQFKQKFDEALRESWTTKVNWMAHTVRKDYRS
procedure-summary: Inhibition of recombinant human N-terminal His6-tagged full length P110beta/full length untagged human p85alpha expressed in baculovirus infected Sf21 insect cells using PIP2 as substrate preincubated for 15 mins followed by substrate addition and measured after 60 mins by HTRF assay
Hi! Could you send only the number? It should be in µM, unit omitted.

Study these solved cases before continuing.
molecule	unit-abbreviation	assay-value
COc1ncc(N2CCOCC2)cc1S(=O)(=O)Nc1ccnc(-c2ccc(CN3CCN(C(C)(C)C)CC3)cc2F)c1	µM	3.98
COc1ncc(N2CCOCC2)cc1S(=O)(=O)Nc1cncc(C#CCN2CCN(C(C)C)CC2)c1	µM	15.8
COc1ncc(C2=CCOCC2)cc1S(=O)(=O)Nc1cncc(C2=CCN(C)CC2)c1	µM	5.01
COc1ncc(N2CCOCC2)cc1S(=O)(=O)Nc1ccnc(-c2ccc(CN3CCN(C(C)C)CC3)cc2F)c1	µM	5.01
COc1ncc(C2=CCOCC2)cc1S(=O)(=O)Nc1cncc(-c2ccc(CN3CCN(C(C)C)CC3)nc2)c1	µM	3.98
COc1ncc(C2=CCOCC2)cc1S(=O)(=O)Nc1cncc(-c2ccc(CN3C[C@@H](C)O[C@@H](C)C3)cc2)c1	µM	0.631
COc1ncc(C2=CCOCC2)cc1S(=O)(=O)Nc1cncc(C2CC2CN(C)C)c1 (stereo not drawn)	µM	1.26

Please look at the following molecule next.
Summary for this molecule, COc1ncc(N2CCOCC2)cc1S(=O)(=O)Nc1ccnc(-c2ccc(CN3CCN(C(C)C)CC3)c(F)c2F)c1 : IC50 is 5.01
